Test system: KAI3 (IL-2 2.5 ng/mL)
Assay: percent inhibition of viability; higher = more inhibition;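 also: normalised to DMSO-only wells as negative and benzethonium chloride as positive control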
Details: 72 h; 0.1 nM
Measurement Name: percent inhibition of viability (%)
Answer format: numeric, % implied, no suffix.

Here are 5 compounds together with their reported answers.
Exam item: I am curious: what percent inhibition of viability value has been reported for CNC(=O)c1cc(Oc2ccc(NC(=O)Nc3ccc(Cl)c(C(F)(F)F)c3)cc2)ccn1 [Sorafenib] (max concentration tested 1000 nM) ?
Marked response: 2.87

Exam item: Any idea what percent inhibition of viability was measured for Cc1ccc(C(=O)N(CCCN)[C@@H](c2oc3cc(Cl)ccc3c(=O)c2Cc2ccccc2)C(C)C)cc1 (max concentration tested 100 nM) ?
Marked response: -3.85

Exam item: Query: percent inhibition of viability; subject: O=C(NOC[C@H](O)CO)c1ccc(F)c(F)c1Nc1ccc(I)cc1F (max concentration tested 1000 nM)
Marked response: -0.87

Exam item: I have this compound here, CON(C)C(=O)N1N=C(c2cc(F)ccc2F)S[C@@]1(CCCN)c1ccccc1 [ARRY-520] (max concentration tested 1000 nM) , and I need its recorded percent inhibition of viability.
Marked response: -7.27

Exam item: Looking for the measured percent inhibition of viability of Cc1nc(Nc2ncc(C(=O)Nc3c(C)cccc3Cl)s2)cc(N2CCN(CCO)CC2)n1 [Dasatinib] (max concentration tested 1000 nM) , can you help?
Marked response: -0.36

Note: attention shifts to another entry.
Exam item: Could you share which percent inhibition of viability value was measured for C/C(=C\c1csc(C)n1)[C@@H]1C[C@@H]2O[C@]2(C)CCC[C@H](C)[C@H](O)[C@@H](C)C(=O)C(C)(C)[C@@H](O)CC(=O)O1 [Patupilone] (max concentration tested 1000 nM) ?
Marked response: -13.1

----------
Tested on: normal primary NK cells, pool 2 (3 donors) (IL-2 2.5 ng/mL)
Experiment: percent inhibition of viability; higher = more inhibition
Conditions: 72 h; 250 nM
Measurement Name: percent inhibition of viability (%)
All answers are understood in %, so give the number only.

Exam item: Reported percent inhibition of viability for normal primary NK cells, pool 2 (3 donors) (IL-2 2.5 ng/mL), given COc1cc2nccc(Oc3ccc(NC(=O)NC4CC4)c(Cl)c3)c2cc1C(N)=O [Lenvatinib] (max concentration tested 2500 nM) ?
Marked response: -9.36

Exam item: Form: Entry = NC(=O)Nc1sc(-c2ccc(F)cc2)cc1C(N)=O [TPCA-1] (max concentration tested 25000 nM) | System = normal primary NK cells, pool 2 (3 donors) (IL-2 2.5 ng/mL) | percent inhibition of viability = ____
Marked response: 24.2

Exam item: Checklist item: percent inhibition of viability tested on normal primary NK cells, pool 2 (3 donors) (IL-2 2.5 ng/mL), entry CCCCCCCCCCCCCCCCCCOP(=O)([O-])OC1CC[N+](C)(C)CC1 [Perifosine] (max concentration tested 2500 nM) , value?
Marked response: 4.53

Exam item: GET /values?readout=percent inhibition of viability&system=normal primary NK cells, pool 2 (3 donors) (IL-2 2.5 ng/mL)&item= CCNC(=O)Nc1ccc(-c2nc3c(c(N4CCOC[C@@H]4C)n2)CCN(C2COC2)C3)cc1 [RG-7603] (max concentration tested 2500 nM)
Marked response: 3.67

----------
Item-by-item account of percent inhibition of viability
Tested on: KHYG-1 (IL-2 2.5 ng/mL)
Assay: percent inhibition of viability; higher = more inhibition
Details: 72 h; 1 nM
Numbers only here, please. The scale is %.

Consider the reported percent inhibition of viability for these molecules:
Exam item: Could you share which percent inhibition of viability value was measured for CNC(=O)c1ccc(C)c(-n2c(C)cc(OCc3ccc(F)cc3F)c(Br)c2=O)c1 (max concentration tested 1000 nM) ?
Marked response: -7.81

Exam item: Reported percent inhibition of viability for COc1cc(N2CCN(C)CC2)ccc1Nc1nccc(-c2cn(C)c3cnccc23)n1 [AZ191] (max concentration tested 10000 nM) : what is it?
Marked response: 0.79

Exam item: Using the record for CC(=O)Nc1ccc(C(=O)Nc2ccccc2N)cc1 [Tacedinaline] (max concentration tested 1000 nM) , report its percent inhibition of viability.
Marked response: -4.06

Then there is this molecule:
Exam item: Need percent inhibition of viability of O=C(O)c1ccc2c(c1)nc(Nc1cccc(Cl)c1)c1ccncc12 [Silmitasertib] (max concentration tested 10000 nM) , thanks.
Marked response: 2.32

Source of measurements: the supplement of paper PMC5908809
